In this section, each of the compounds is paired with its reported IC50.
# tgt: Avi-KRAS G12V (2-169) GTP/RAF1 RBD-3xFLAG (51-131) (Homo sapiens, UniProt P01116, G12V)
# Construct: Avi-KRAS G12V (2-169)
# Sequence (P01116 2-169 isoform P01116-2 G12V): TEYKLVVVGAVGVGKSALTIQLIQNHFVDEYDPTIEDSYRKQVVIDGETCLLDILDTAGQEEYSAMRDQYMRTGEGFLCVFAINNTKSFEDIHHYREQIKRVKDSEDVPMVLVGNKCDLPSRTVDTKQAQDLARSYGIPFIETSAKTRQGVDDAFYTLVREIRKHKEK
# test protocol: Raf1-KRAS G12V-GTP disruption HTRF assay (Biological Example 3)
# Format: binding
# experimental conditions: KRAS G12V, GTP-loaded

Before answering, review these 2 worked examples.
[[record]]
compound = "CCN(c1nc(OCC23CCCN2CC(F)C3)nc2c(F)c(-c3ccc(F)c4sc(N)c(C#N)c34)c(C(F)(F)F)cc12)C1CC(C)N(C(=O)C2CC2(F)F)C1 (stereo not drawn) [Compound 732]"
recorded_value = "100 to 1000 nM"

[[record]]
compound = "CCN(c1nc(OC[C@@]23CCCN2C[C@H](F)C3)nc2c(F)c(-c3ccc(F)c4sc(N)c(C#N)c34)c(C(F)(F)F)cc12)C1CCN(C(=O)OC)C1 (stereo partly drawn) [Compound 947]"
recorded_value = "> 10000 nM"


Continue with the next compound.
Can you share its IC50? I mean this compound: CCN(c1nc(OC[C@@]23CCCN2C[C@H](F)C3)nc2c(F)c(-c3ccc(F)c4sc(N)c(C#N)c34)c(C(F)(F)F)cc12)[C@H]1C[C@H](COC)N(C(=O)[C@@H]2C[C@H]2F)C1 (atropisomer, axis not shown) [Compound 848]
100 to 1000 nM

====

In this section, each of the compounds is paired with its reported IC50.
# tgt: Avi-KRAS G12V (1-169) GppNHp/RAF1 RBD-3xFLAG (52-151) (Homo sapiens, UniProt P01116, G12V)
# Construct: Avi-KRAS G12V (1-169)
# Sequence (P01116 1-169 isoform P01116-2 G12V): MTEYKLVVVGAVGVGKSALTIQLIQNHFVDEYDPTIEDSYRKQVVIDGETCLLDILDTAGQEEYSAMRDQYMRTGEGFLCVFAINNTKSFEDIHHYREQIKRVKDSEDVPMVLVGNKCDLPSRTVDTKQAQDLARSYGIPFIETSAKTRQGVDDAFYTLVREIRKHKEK
# test protocol: Raf1-KRAS G12V-GppNHP disruption HTRF assay (Biological Example 1)
# Type: binding
# experimental conditions: KRAS G12V-GppNHp/RAF1 RBD HTRF

Before answering, review these 4 worked examples.
[[record]]
compound = "CCN(c1nc(OC[C@@]23CCCN2C[C@H](F)C3)nc2c(F)c(-c3ccc(F)c4sc(N)c(C#N)c34)c(C(F)(F)F)cc12)[C@@H]1C[C@H](C)N(C(=O)OC)C1 (atropisomer, axis not shown)"
recorded_value = "0.1 to 1 µM"

[[record]]
compound = "CN(c1nc(OC[C@@]23CCCN2C[C@H](F)C3)nc2c(F)c(-c3ccc(F)c4sc(N)c(C#N)c34)c(C(F)(F)F)cc12)[C@@H]1C[C@@H]2COC(=O)N2C1"
recorded_value = "0.1 to 1 µM"

[[record]]
compound = "N#Cc1c(N)sc2c(F)ccc(-c3c(C(F)(F)F)cc4c(N5CC6CCC(C5)N6C(=O)C5CC5)nc(OC[C@@]56CCCN5C[C@H](F)C6)nc4c3F)c12"
recorded_value = "1 to 10 µM"

[[record]]
compound = "CCN(c1nc(OC[C@@]23CCCN2C[C@H](F)C3)nc2c(F)c(-c3ccc(F)c4sc(N)c(C#N)c34)c(C(F)(F)F)cc12)[C@H]1CCN(C(=O)N2CCCC2)C1"
recorded_value = "< 0.1 µM"


Can you share its IC50? I mean this compound: "CCN(c1nc(OC[C@@]23CCCN2C[C@H](F)C3)nc2c(F)c(-c3ccc(F)c4sc(N)c(C#N)c34)c(Cl)cc12)[C@@H]1CCN(C(C)=O)[C@H]1C"
1 to 10 µM

Try the compound "CCN(c1nc(OC[C@@]23CCCN2C[C@H](F)C3)nc2c(F)c(-c3ccc(F)c4sc(N)c(C#N)c34)c(C(F)(F)F)cc12)[C@H]1C[C@H](C)N(C(=O)C2CC2)C1"
< 0.1 µM

Try the compound "N#Cc1c(N)sc2c(F)ccc(-c3c(C(F)(F)F)cc4c(N5C6CCC5CS(=O)(=O)C6)nc(OC[C@@]56CCCN5C[C@H](F)C6)nc4c3F)c12"
1 to 10 µM

Try the compound N#Cc1c(N)sc2c(F)ccc(-c3c(C(F)(F)F)cc4c(N5CC6COC(C6)C5)nc(OC[C@@]56CCCN5C[C@H](F)C6)nc4c3F)c12 (stereo partly shown)
1 to 10 µM

Try the compound N#Cc1c(N)sc2c(F)ccc(-c3c(C(F)(F)F)cc4c(N5CC6CC(O)C(C6)C5)nc(OC[C@@]56CCCN5C[C@H](F)C6)nc4c3F)c12 (stereo partly shown)
> 10 µM

Data credit: patent US20260042764A1
